Data provenance is paper PMC8508768.

molecular target: MMP-9 (Homo sapiens)
Sequence (P14780 94-707): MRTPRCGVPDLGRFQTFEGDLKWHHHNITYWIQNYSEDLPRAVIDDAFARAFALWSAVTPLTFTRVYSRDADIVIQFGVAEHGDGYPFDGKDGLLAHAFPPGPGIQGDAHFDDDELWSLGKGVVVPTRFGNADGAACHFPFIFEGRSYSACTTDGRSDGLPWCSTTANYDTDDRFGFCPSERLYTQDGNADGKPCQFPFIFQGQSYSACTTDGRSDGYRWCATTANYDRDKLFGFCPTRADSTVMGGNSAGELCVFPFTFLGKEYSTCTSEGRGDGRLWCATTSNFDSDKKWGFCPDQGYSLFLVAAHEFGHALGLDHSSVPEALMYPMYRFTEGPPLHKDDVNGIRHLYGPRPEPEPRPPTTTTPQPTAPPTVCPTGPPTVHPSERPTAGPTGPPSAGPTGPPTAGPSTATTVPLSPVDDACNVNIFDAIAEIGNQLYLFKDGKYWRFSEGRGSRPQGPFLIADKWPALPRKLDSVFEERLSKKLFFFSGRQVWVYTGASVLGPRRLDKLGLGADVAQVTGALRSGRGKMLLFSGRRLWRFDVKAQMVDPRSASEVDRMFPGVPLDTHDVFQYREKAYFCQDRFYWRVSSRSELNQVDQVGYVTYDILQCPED
measure: IC50 (nM)
Quick reminder: number only, in nM, skip the unit.

So, `COc1ccc(S(=O)(=O)N(CC(=O)NO)CC(C)C)cc1` ? Its IC50 was 349

----------
test system: Caco-2; test: MTT anticancer assay, colon cancer cells; type: cell-based, human; details: read-out: Caco-2 IC50; MTT; mean ± SEM
measure: IC50 (nM)
Quick reminder: number only, in nM, skip the unit.

So, S=c1n(CN2CCN(Cn3nc(Cn4cc(-c5ccccc5)nn4)n(-c4ccccc4)c3=S)CC2)nc(Cn2cc(-c3ccccc3)nn2)n1-c1ccccc1 [Compound 15] ? Its IC50 was 264

----------
tested on: Caco-2; experiment: MTT anticancer assay, colon cancer cells; type: cell-based, human; conditions: selectivity index: ratio of IC50 against normal (Wi-38) and cancer cells
measure: Caco-2 SI

So, `CCn1c(Cn2cc(-c3ccccc3)nn2)nn(CN2CCCCC2)c1=S` ? Its Caco-2 SI was 1.382

So, `CN1CCN(Cn2nc(Cn3cc(-c4ccccc4)nn3)n(-c3ccccc3)c2=S)CC1` ? Its Caco-2 SI was 1.880

So, `CCn1c(Cn2cc(-c3ccccc3)nn2)nn(CN2CCN(C)CC2)c1=S` ? Its Caco-2 SI was 0.996

----------
test system: Caco-2; assay: MTT anticancer assay, colon cancer cells; assay type: cell-based, human; conditions: Homo sapiens, Caco-2, MTT; mean ± SEM; read-out: Caco-2 IC50
measure: pIC50
Just the number, please; pIC50 means minus log10 of the concentration in mol/L.

Completed entries (count: 2):
So, `CCn1c(Cn2cc(-c3ccccc3)nn2)nn(CN2CCCCC2)c1=S` ? Its pIC50 was 5.79

So, `CCn1c(Cn2cc(-c3ccccc3)nn2)nn(CN2CCOCC2)c1=S` ? Its pIC50 was 5.48

Turning now to a further compound:
So, `S=c1n(CN2CCOCC2)nc(Cn2cc(-c3ccccc3)nn2)n1-c1ccccc1` ? Its pIC50 was 5.67

----------
system: Caco-2; assay: MTT anticancer assay, colon cancer cells; format: cell-based, human; details: selectivity index: ratio of IC50 against normal (Wi-38) and cancer cells
// reported Caco-2 SI for each item listed
The reply should be a number, written without any unit.

So, `CCn1c(Cn2cc(-c3ccccc3)nn2)nn(CN2CCOCC2)c1=S` ? Its Caco-2 SI was 0.828

So, `S=c1n(CN2CCCCC2)nc(Cn2cc(-c3ccccc3)nn2)n1-c1ccccc1` ? Its Caco-2 SI was 0.577

Turning now to a further compound:
So, `S=c1n(CN2CCOCC2)nc(Cn2cc(-c3ccccc3)nn2)n1-c1ccccc1` ? Its Caco-2 SI was 0.827
